- Tested on: S.abortivoequina
- Assay: in vitro MIC by serial dilution, S.abortivoequina
- Format: cell-based
- Run conditions: Salmonella, read-out: MIC (minimal inhibitory concentration)
Assay metric: MIC (µg/mL)
// units = µg/mL; emit number, no label

Study these solved cases before continuing.
O=C(CSc1cnccn1)NC1C(=O)N2C(C(=O)O)=C(CSc3c[n+]([O-])ccn3)CSC12 (stereo not shown)    12.5
NC(=O)c1cncc(SCC2=C(C(=O)O)N3C(=O)C(NC(=O)Cc4cccs4)C3SC2)n1 (stereo not shown)    6.25

Which MIC is listed for O=C(Cc1cccs1)NC1C(=O)N2C(C(=O)O)=C(CSc3cnccn3)CSC12 (stereo not shown) ? 6.25

Which MIC is listed for CC(=O)OCC1=C(C(=O)O)N2C(=O)[C@@H](NC(=O)Cc3cccs3)[C@H]2SC1 [cephalothin, reference compound] ? 1.5

* * *

Attribute: log10(MIC)
- Tested on: S.flexneri
- Assay: in vitro MIC by serial dilution, S.flexneri
- Assay type: cell-based
- Run conditions: Shigella flexneri; S.flexneri; serial dilutions in Penassay Seed Broth Difco, 10^4 bacteria/ml; read-out: MIC (minimal inhibitory concentration)
The figures below represent log10 of MIC, where MIC is stated in µg/mL.

NC(=O)c1cncc(SCC2=C(C(=O)O)N3C(=O)C(NC(=O)Cc4cccs4)C3SC2)n1 (stereo not shown) [Compound 313]    0.80
O=C(Cc1ccccc1)NC1C(=O)N2C(C(=O)O)=C(CSc3cnccn3)CS[C@H]12 (stereo partly shown) [Compound 308]    1.70
COc1nccnc1SCC1=C(C(=O)O)N2C(=O)C(NC(=O)Cc3cccs3)C2SC1 (stereo not shown) [Compound 317]    1.70
CC(=O)OCC1=C(C(=O)O)N2C(=O)[C@@H](NC(=O)Cc3cccs3)[C@H]2SC1 [cephalothin, reference compound]    0.18
O=C(Cn1cnnn1)NC1C(=O)N2C(C(=O)O)=C(CSc3cnccn3)CSC12 (stereo not shown) [Compound 318]    0.49
COc1cncc(SCC2=C(C(=O)O)N3C(=O)C(NC(=O)Cc4cccs4)C3SC2)n1 (stereo not shown) [Compound 321]    1.00
NC(=O)c1cncc(SCC2=C(C(=O)O)N3C(=O)C(NC(=O)Cc4ccccc4)C3SC2)n1 (stereo not shown) [Compound 311]    1.10
O=C(Cc1cccs1)NC1C(=O)N2C(C(=O)O)=C(CSc3cnccn3)CSC12 (stereo not shown) [Compound 314]    0.80

Which log10(MIC) is listed for O=C(CSc1cnccn1)NC1C(=O)N2C(C(=O)O)=C(CSc3c[n+]([O-])ccn3)CSC12 (stereo not shown) [Compound 316] ? 1.10

Which log10(MIC) is listed for O=C(CSc1cnccn1)NC1C(=O)N2C(C(=O)O)=C(CSc3cncc(Cl)n3)CSC12 (stereo not shown) [Compound 315] ? 1.70

Which log10(MIC) is listed for O=C(Cc1ccccc1)NC1C(=O)N2C(C(=O)O)=C(CSc3c[n+]([O-])ccn3)CSC12 (stereo not shown) [356/307] ? 1.10

Which log10(MIC) is listed for Cc1nnc(SCC2=C(C(=O)O)N3C(=O)[C@@H](NC(=O)Cn4cnnn4)[C@H]3SC2)s1 [cephazolin, reference compound] ? 0.18

* * *

Attribute: MIC
- System: E.coli B
- Assay: in vitro MIC by serial dilution, E.coli B
- Format: cell-based
- Run conditions: Escherichia coli; E.coli B; serial dilutions in Penassay Seed Broth Difco, 10^4 bacteria/ml; read-out: MIC (minimal inhibitory concentration)
// units = µg/mL; emit number, no label

Study these solved cases before continuing.
O=C(Cn1cnnn1)NC1C(=O)N2C(C(=O)O)=C(CSc3cnccn3)CSC12 (stereo not shown)    6.25
O=C(CSc1cnccn1)NC1C(=O)N2C(C(=O)O)=C(CSc3cncc(Cl)n3)CSC12 (stereo not shown)    2.5
NC(=O)c1cncc(SCC2=C(C(=O)O)N3C(=O)C(NC(=O)Cc4ccccc4)C3SC2)n1 (stereo not shown)    5

Which MIC is listed for NC(=O)c1cncc(SCC2=C(C(=O)O)N3C(=O)C(NC(=O)Cc4cccs4)C3SC2)n1 (stereo not shown) ? 2.5

Which MIC is listed for O=C(CSc1cnccn1)NC1C(=O)N2C(C(=O)O)=C(CSc3c[n+]([O-])ccn3)CSC12 (stereo not shown) ? 5

Which MIC is listed for O=C(Cc1cccs1)NC1C(=O)N2C(C(=O)O)=C(CSc3cnccn3)CSC12 (stereo not shown) ? 0.6

Which MIC is listed for CC(=O)OCC1=C(C(=O)O)N2C(=O)[C@@H](NC(=O)Cc3cccs3)[C@H]2SC1 [cephalothin, reference compound] ? 1.25

Which MIC is listed for Cc1nnc(SCC2=C(C(=O)O)N3C(=O)[C@@H](NC(=O)Cn4cnnn4)[C@H]3SC2)s1 [cephazolin, reference compound] ? 1.25

Which MIC is listed for COc1nccnc1SCC1=C(C(=O)O)N2C(=O)C(NC(=O)Cc3cccs3)C2SC1 (stereo not shown) ? 1.5

Which MIC is listed for O=C(Cc1ccccc1)NC1C(=O)N2C(C(=O)O)=C(CSc3cncc(Cl)n3)CSC12 (stereo not shown) ? 0.6

Which MIC is listed for O=C(Cc1ccccc1)NC1C(=O)N2C(C(=O)O)=C(CSc3c[n+]([O-])ccn3)CSC12 (stereo not shown) ? 6

Which MIC is listed for COc1cncc(SCC2=C(C(=O)O)N3C(=O)C(NC(=O)Cc4cccs4)C3SC2)n1 (stereo not shown) ? 1.25
